pKi: −log10 of the molar value.
Listed here: compounds with reported pKi for UniProtKB P29275.
Sequence (P29275 whole entry): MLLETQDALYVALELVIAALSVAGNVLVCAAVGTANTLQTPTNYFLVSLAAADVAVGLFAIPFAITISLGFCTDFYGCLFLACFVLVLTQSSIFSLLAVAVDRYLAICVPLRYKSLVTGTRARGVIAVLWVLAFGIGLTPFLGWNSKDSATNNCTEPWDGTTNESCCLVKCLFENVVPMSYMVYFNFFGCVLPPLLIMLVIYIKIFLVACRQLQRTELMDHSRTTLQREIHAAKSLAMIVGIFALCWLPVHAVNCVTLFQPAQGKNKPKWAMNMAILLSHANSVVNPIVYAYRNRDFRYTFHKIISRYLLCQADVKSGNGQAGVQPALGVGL
readout kind: pKi

Consider the worked cases shown below.
Problem: Reported pKi for CCn1c(=O)c2[nH]c(Cc3ccco3)nc2n(Cc2ccco2)c1=O : what is it?
Result: 6.90

Problem: Subsequent entry: C=CCn1c(=O)c2c(nc(Cc3c(F)cccc3F)n2C)n(Cc2ccco2)c1=O
Result: 7.67

Problem: Then what about the compound C#CCn1c(=O)c2[nH]c(Cc3cccs3)nc2n(Cc2ccco2)c1=O ?
Result: 6.57

Problem: Can you check Cn1c(Cc2cccs2)nc2c1c(=O)n(CC1CC1)c(=O)n2Cc1ccco1 next?
Result: 7.45

Problem: What do you get for C=CCn1c(=O)c2[nH]c(Cc3cccs3)nc2n(Cc2ccco2)c1=O ?
Result: 6.26

[A] COCCn1c(=O)c2c(nc(Cc3cccs3)n2C)n(Cc2ccco2)c1=O
[B] CCSCCn1c(=O)c2[nH]c(Cc3ccccc3)nc2n(Cc2ccco2)c1=O
[C] Cn1c(=O)c2[nH]c(Cc3ccco3)nc2n(Cc2ccco2)c1=O
[D] CCCn1c(=O)c2[nH]c(Cc3ccccc3)nc2n(Cc2ccco2)c1=O
[E] CCn1c(=O)c2c(nc(Cc3ccccc3)n2C)n(Cc2ccco2)c1=O
Problem: Sort the compounds on pKi; start with the lowest figure. # respond with the labels, arranged in the requested order
Result: B, C, D, A, E
